MEASUREMENT_NOTES: Chemical stability assessed as hydrolysis half life
Format: physicochemical
Entries and their measured half-life follow.
Answer in h, number only, no unit symbol.

MOLECULE_SMILES: C=CCCC(=O)O[C@H](C)[C@H]1C(=O)N(C(=O)CCC=C)[C@@H]1OC(C)=O
UNIT_ABBREVIATION: h
half-life: 16

Q: Can you share its half-life? I mean this compound: `CC(=O)O[C@@H]1[C@@H]2C(=O)N1C(=O)CC/C=C/CCC(=O)O[C@@H]2C`
Result: 6

Q: Can you share its half-life? I mean this compound: `CC(=O)O[C@@H]1[C@@H]2C(=O)N1C(=O)CCCCCCC(=O)O[C@@H]2C`
Result: 4

###

TARGET_OR_SYSTEM: UniProt:Q7DHH4
MEASUREMENT_NOTES: Inhibition of methicillin-resistant Staphylococcus aureus ATCC […] PBP2a assessed as residual activity at 100 uM after 16 hrs
RUN_PARAMETERS: values are per cent of control
Entries and their measured residual activity follow.
Answer in %, number only, no unit symbol.

MOLECULE_SMILES: C=CCCC(=O)O[C@H](C)[C@H]1C(=O)N(C(=O)CCC=C)[C@@H]1OC(C)=O
REPORTED_ENDPOINT: residual activity
ENDPOINT_RESULT: 66

MOLECULE_SMILES: CC1(C)S[C@@H]2[C@H](NC(=O)Cc3ccccc3)C(=O)N2[C@H]1C(=O)O
REPORTED_ENDPOINT: residual activity
ENDPOINT_RESULT: 13

MOLECULE_SMILES: CC(=O)O[C@@H]1[C@@H]2C(=O)N1C(=O)CCCCCCC(=O)O[C@@H]2C
REPORTED_ENDPOINT: residual activity
ENDPOINT_RESULT: 94

Pending molecule:
Q: Can you share its residual activity? I mean this molecule: `CC(=O)O[C@@H]1[C@@H]2C(=O)N1C(=O)CC/C=C/CCC(=O)O[C@@H]2C`
Result: 86

###

TARGET_OR_SYSTEM: Penicillin-binding protein 2x (Streptococcus pneumoniae serotype 4 (strain ATCC BAA-334 / TIGR4)) (UniProt P14677)
Sequence (whole entry): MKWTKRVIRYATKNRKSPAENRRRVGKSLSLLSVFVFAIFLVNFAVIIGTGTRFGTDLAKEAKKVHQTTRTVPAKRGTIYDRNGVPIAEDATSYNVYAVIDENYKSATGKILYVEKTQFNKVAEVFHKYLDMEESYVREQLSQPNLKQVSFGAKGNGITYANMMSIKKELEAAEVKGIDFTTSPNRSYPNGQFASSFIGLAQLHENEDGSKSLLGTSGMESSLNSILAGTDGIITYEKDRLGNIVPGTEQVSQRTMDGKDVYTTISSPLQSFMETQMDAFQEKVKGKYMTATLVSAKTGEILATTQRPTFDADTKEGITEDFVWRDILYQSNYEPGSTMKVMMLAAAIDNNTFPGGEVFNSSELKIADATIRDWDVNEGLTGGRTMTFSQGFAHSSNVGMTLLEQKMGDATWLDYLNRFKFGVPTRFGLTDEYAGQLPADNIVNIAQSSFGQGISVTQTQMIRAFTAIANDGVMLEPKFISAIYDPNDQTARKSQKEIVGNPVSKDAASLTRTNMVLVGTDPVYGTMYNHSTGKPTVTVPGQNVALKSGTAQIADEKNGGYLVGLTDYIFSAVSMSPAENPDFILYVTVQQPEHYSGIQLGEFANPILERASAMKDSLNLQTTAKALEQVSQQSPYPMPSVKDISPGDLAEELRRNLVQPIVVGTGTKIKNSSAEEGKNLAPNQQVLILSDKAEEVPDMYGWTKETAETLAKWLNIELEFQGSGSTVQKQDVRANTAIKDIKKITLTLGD
MEASUREMENT_NOTES: Residual activity of Streptococcus pneumoniae 5204 PBP2x at 100 uM after 16 hrs
REPORTED_ENDPOINT: residual activity (%)
Answer in %, number only, no unit symbol.

MOLECULE_SMILES: C=CCCC(=O)O[C@H](C)[C@H]1C(=O)N(C(=O)CCC=C)[C@@H]1OC(C)=O
ENDPOINT_RESULT: 93
//
MOLECULE_SMILES: CC(=O)O[C@@H]1[C@@H]2C(=O)N1C(=O)CC/C=C/CCC(=O)O[C@@H]2C
ENDPOINT_RESULT: 116

Pending molecule:
Q: Can you share its residual activity? I mean this molecule: `CC(=O)O[C@@H]1[C@@H]2C(=O)N1C(=O)CCCCCCC(=O)O[C@@H]2C`
Result: 99

###

System: Enterococcus faecium
MEASUREMENT_NOTES: Residual activity of Enterococcus faecium PBP5fm at 100 uM after 16 hrs
REPORTED_ENDPOINT: residual activity (%)
Answer in %, number only, no unit symbol.

Worked examples follow.
MOLECULE_SMILES: C=CCCC(=O)O[C@H](C)[C@H]1C(=O)N(C(=O)CCC=C)[C@@H]1OC(C)=O
TARGET_OR_SYSTEM: Enterococcus faecium
residual activity / %: 84
//
MOLECULE_SMILES: CC(=O)O[C@@H]1[C@@H]2C(=O)N1C(=O)CC/C=C/CCC(=O)O[C@@H]2C
TARGET_OR_SYSTEM: Enterococcus faecium
residual activity / %: 104
//
MOLECULE_SMILES: CC1(C)S[C@@H]2[C@H](NC(=O)Cc3ccccc3)C(=O)N2[C@H]1C(=O)O
TARGET_OR_SYSTEM: Enterococcus faecium
residual activity / %: 10

Pending compound:
Q: Can you share its residual activity? I mean this compound: `CC(=O)O[C@@H]1[C@@H]2C(=O)N1C(=O)CCCCCCC(=O)O[C@@H]2C`
Result: 113
